protein stability index listing for selected variants.
B1: TRIM14 (parent)
chain: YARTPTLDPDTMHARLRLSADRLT

- Variants of: B1
- Test name: protein stability index of a GFP-peptide fusion (GPS, HEK-293T) (PSI 1-6); higher = more stable;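 further: lentivirally expressed fusions sorted by FACS into six bins by GFP to DsRed ratio, PSI derived from sequencing read proportions per bin multiplied by bin number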
- Settings: c terminus: a fixed tail appended
Answer field: number only, no words.

Answered cases to consult:
Variant code: R22S
protein stability index: 2.81
//
Variant code: A2I
protein stability index: 1.73

Enquiry: Look up protein stability index for this variant: R15A
Return: 2.81

Enquiry: How about L7C ?
Return: 2.1

Enquiry: How about R17W ?
Return: 1.42

Enquiry: How about R15F ?
Return: 1.93
